Taken from ChEMBL document CHEMBL1124763.

The following molecules are listed with their measured ILS at 400 mg/kg/day values.
system: Mus musculus; test: Increase of life span was determined against Ip implanted L1210 / 0 lymphoid leukemia in mice at a dose of 400 mg/kg per day after treatment 1; format: functional; conditions: L1210/0, ip, route intraperitoneal
reported-metric: ILS at 400 mg/kg/day (%)

molecule="CCCCCCCCCCCCCCCCCCSCC(COP(=O)(O)OP(=O)(O)OC[C@H]1O[C@@H](n2ccc(N)nc2=O)[C@@H](O)[C@@H]1O)OC(=O)CCCCCCCCCCCCCCC (mixture of isomers)" numeric_result=321
molecule=Nc1ccn([C@@H]2O[C@H](CO)[C@@H](O)[C@@H]2O)c(=O)n1 numeric_result=14
molecule="CCCCCCCCCCCCCCCCCCSCC(COP(=O)(O)OP(=O)(O)OC[C@H]1OC(n2ccc(N)nc2=O)[C@@H](O)[C@@H]1O)OCCCCCCCCCCCCCCCC (mixture of isomers)" numeric_result=75
molecule="CCCCCCCCCCCCCCCCSCC(COP(=O)(O)OP(=O)(O)OC[C@H]1OC(n2ccc(N)nc2=O)[C@@H](O)[C@@H]1O)OC(=O)CCCCCCCCCCCCCCC (mixture of isomers)" numeric_result=293
